- measurement target: RalB (Homo sapiens)
- Construct: expressed in transfected cells; host or cells: HepG2 (from b6; the methods paragraph names no cell line)
- Sequence (P11234 1-203 limits assumed): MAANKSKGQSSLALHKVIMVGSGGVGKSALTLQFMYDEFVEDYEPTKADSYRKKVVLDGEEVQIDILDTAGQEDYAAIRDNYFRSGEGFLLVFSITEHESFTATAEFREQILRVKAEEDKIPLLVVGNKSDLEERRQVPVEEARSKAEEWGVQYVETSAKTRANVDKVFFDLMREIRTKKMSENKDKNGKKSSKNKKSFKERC
- protocol description: ELISA-based RalB activity assay (RalBP1-coated plates, lysates of compound-treated cells)
- Type: biochemical
- particulars: 1 μM compound; % control = active (RalBP1-bound) RalB remaining
Below, each entry is listed with its recorded remaining activity at 1 µM.
Unit % implied. Number only.

• Cc1nn(-c2ccccc2)c2c1C(c1ccc(C(F)(F)F)cc1)C(C#N)=C(NS(=O)(=O)c1ccc(F)cc1F)O2 (stereo not shown) = 43
• COc1ccc(S(=O)(=O)NC2=C(C#N)C(c3cccc(OC)c3)c3c(C)nn(-c4ccccc4Cl)c3O2)cc1 (stereo not shown) = 73
• Cc1ccc(S(=O)(=O)NC2=C(C#N)C(c3ccccc3)c3c(C)nn(-c4ccccc4Cl)c3O2)cc1 (stereo not shown) = 64

Now examine the next entry.
Query :: Sample Cc1ccc(C2C(C#N)=C(NS(=O)(=O)c3ccc(C)cc3)Oc3c2c(C)nn3-c2ccccc2)cc1 (stereo not shown) — what was its remaining activity at 1 µM?
Result :: 105
